compounds and their reported selectivity ratio
Tested on: aromatase
Experiment: Selectivity index, ratio of IC50 for GFP-expressing African green monkey Vero cells to IC50 for aromatase (unknown origin)
Type: toxicity
Settings: read-out: Ratio IC50

In the examples that follow, each entry is paired with its recorded selectivity ratio.
Q: Need selectivity ratio of O=S(=O)(NCCc1c(C(c2ccc3c(c2)Cc2ccccc2-3)c2[nH]c3ccccc3c2CCNS(=O)(=O)c2ccc(Cl)cc2)[nH]c2ccccc12)c1ccc(Cl)cc1 , thanks.
A: > 6.72

Q: Follow-up item: O=[N+]([O-])c1ccc(S(=O)(=O)NCCc2c(C(c3ccccc3)c3[nH]c4ccccc4c3CCNS(=O)(=O)c3ccc([N+](=O)[O-])cc3)[nH]c3ccccc23)cc1
A: > 5.73

Continuing:
Q: Look up selectivity ratio for this compound: O=S(=O)(NCCc1c(C(c2ccc(Br)cc2)c2[nH]c3ccccc3c2CCNS(=O)(=O)c2ccc(C(F)(F)F)cc2)[nH]c2ccccc12)c1ccc(C(F)(F)F)cc1
A: 7.3

Q: Likewise for N#Cc1ccc(C(c2[nH]c3ccccc3c2CCNS(=O)(=O)c2ccc(F)cc2)c2[nH]c3ccccc3c2CCNS(=O)(=O)c2ccc(F)cc2)cc1 ?
A: > 6.8

Q: // repeat for COc1ccc(S(=O)(=O)NCCc2c(C(c3cc(OC)c(O)c(OC)c3)c3[nH]c4ccccc4c3CCNS(=O)(=O)c3ccc(OC)cc3)[nH]c3ccccc23)cc1 and report
A: > 24.2

Q: Next record, please: COc1ccc(S(=O)(=O)NCCc2c(C(c3ccccc3)c3[nH]c4ccccc4c3CCNS(=O)(=O)c3ccc(OC)cc3)[nH]c3ccccc23)cc1
A: > 19.1

###

Target: Aromatase (Homo sapiens, UniProt P11511)
Sequence (P11511 whole entry): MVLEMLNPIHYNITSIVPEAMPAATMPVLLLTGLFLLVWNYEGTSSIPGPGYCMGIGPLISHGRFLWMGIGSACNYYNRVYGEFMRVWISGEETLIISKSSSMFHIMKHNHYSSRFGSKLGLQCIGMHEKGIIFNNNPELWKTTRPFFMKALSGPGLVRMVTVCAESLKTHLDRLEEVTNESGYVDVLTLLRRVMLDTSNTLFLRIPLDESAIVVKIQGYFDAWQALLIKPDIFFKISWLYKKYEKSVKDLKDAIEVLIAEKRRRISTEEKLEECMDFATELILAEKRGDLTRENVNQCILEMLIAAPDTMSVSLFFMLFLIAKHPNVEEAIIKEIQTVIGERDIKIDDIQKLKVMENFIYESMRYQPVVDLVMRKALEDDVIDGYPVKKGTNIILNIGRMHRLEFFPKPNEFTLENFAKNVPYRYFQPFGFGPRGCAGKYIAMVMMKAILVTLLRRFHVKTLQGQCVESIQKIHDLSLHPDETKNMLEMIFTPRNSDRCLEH
Below, each of the compounds is paired with its reported pIC50 value.
Scale: pIC50 equals -log10([C]), with [C] in mol/L.

Guide cases for pIC50, answers given:
Q: Look at this compound and give its reported pIC50. O=S(=O)(NCCc1c(C(c2ccc(Br)cc2)c2[nH]c3ccccc3c2CCNS(=O)(=O)c2ccc(Cl)cc2)[nH]c2ccccc12)c1ccc(Cl)cc1
A: 5.57

Q: Next compound up: O=C1Nc2ccccc2C1(c1[nH]c2ccccc2c1CCNS(=O)(=O)c1ccc(Cl)cc1)c1[nH]c2ccccc2c1CCNS(=O)(=O)c1ccc(Cl)cc1
A: 5.08

Q: And COc1ccc(S(=O)(=O)NCCc2c(C(c3ccccc3)c3[nH]c4ccccc4c3CCNS(=O)(=O)c3ccc(OC)cc3)[nH]c3ccccc23)cc1 ?
A: 5.46

Q: Now give it for COc1ccc(S(=O)(=O)NCCc2c(C3(c4[nH]c5ccccc5c4CCNS(=O)(=O)c4ccc(OC)cc4)C(=O)Nc4ccccc43)[nH]c3ccccc23)cc1 too.
A: 5.55

Q: Same question, Cc1ccc(S(=O)(=O)NCCc2c(C(c3ccccc3O)c3[nH]c4ccccc4c3CCNS(=O)(=O)c3ccc(C)cc3)[nH]c3ccccc23)cc1 this time
A: 5.39

# context switch: different compound, same pIC50
Q: Find the recorded pIC50 belonging to N#Cc1ccc(C(c2[nH]c3ccccc3c2CCNS(=O)(=O)c2ccc(Cl)cc2)c2[nH]c3ccccc3c2CCNS(=O)(=O)c2ccc(Cl)cc2)cc1 and report it.
A: 5.26

###

Tested on: aromatase
Experiment: Selectivity index, ratio of IC50 for GFP-expressing African green monkey Vero cells to IC50 for aromatase (unknown origin)
Assay type: toxicity
Conditions: read-out: Ratio IC50
Listing of recorded selectivity ratio by entry.

Q: # selectivity ratio lookup, item N#Cc1ccc(C(c2[nH]c3ccccc3c2CCNS(=O)(=O)c2ccc(C(F)(F)F)cc2)c2[nH]c3ccccc3c2CCNS(=O)(=O)c2ccc(C(F)(F)F)cc2)cc1
A: > 3.85

Q: Entry O=S(=O)(NCCc1c(C(c2ccccc2O)c2[nH]c3ccccc3c2CCNS(=O)(=O)c2ccc(Cl)cc2)[nH]c2ccccc12)c1ccc(Cl)cc1 please
A: > 15.4

Continuing:
Q: Which selectivity ratio value is on record for O=S(=O)(NCCc1c(C(c2ccc(F)cc2)c2[nH]c3ccccc3c2CCNS(=O)(=O)c2ccc(Br)cc2)[nH]c2ccccc12)c1ccc(Br)cc1 ?
A: > 7.61

###

Test system: aromatase
Test: Selectivity index, ratio of IC50 for GFP-expressing African green monkey Vero cells to IC50 for aromatase (unknown origin)
Type: toxicity
Conditions: read-out: Ratio IC50
OBSERVED PROPERTY: selectivity ratio

Q: Request: selectivity ratio, test system aromatase, entry O=S(=O)(NCCc1c(C(c2ccc(F)cc2)c2[nH]c3ccccc3c2CCNS(=O)(=O)c2ccc(Cl)cc2)[nH]c2ccccc12)c1ccc(Cl)cc1
A: > 11.9

Q: Also O=[N+]([O-])c1ccc(C(c2[nH]c3ccccc3c2CCNS(=O)(=O)c2ccc(Br)cc2)c2[nH]c3ccccc3c2CCNS(=O)(=O)c2ccc(Br)cc2)cc1 ?
A: > 20.8

New cases:
Q: So what selectivity ratio did O=S(=O)(NCCc1c(C(c2ccc(C(F)(F)F)cc2)c2[nH]c3ccccc3c2CCNS(=O)(=O)c2ccc(Cl)cc2)[nH]c2ccccc12)c1ccc(Cl)cc1 get with aromatase?
A: 5.06

###

Each entry below lists one item and its recorded IC50 value.
Biological target: Aromatase (Homo sapiens)
Sequence (P11511 whole entry): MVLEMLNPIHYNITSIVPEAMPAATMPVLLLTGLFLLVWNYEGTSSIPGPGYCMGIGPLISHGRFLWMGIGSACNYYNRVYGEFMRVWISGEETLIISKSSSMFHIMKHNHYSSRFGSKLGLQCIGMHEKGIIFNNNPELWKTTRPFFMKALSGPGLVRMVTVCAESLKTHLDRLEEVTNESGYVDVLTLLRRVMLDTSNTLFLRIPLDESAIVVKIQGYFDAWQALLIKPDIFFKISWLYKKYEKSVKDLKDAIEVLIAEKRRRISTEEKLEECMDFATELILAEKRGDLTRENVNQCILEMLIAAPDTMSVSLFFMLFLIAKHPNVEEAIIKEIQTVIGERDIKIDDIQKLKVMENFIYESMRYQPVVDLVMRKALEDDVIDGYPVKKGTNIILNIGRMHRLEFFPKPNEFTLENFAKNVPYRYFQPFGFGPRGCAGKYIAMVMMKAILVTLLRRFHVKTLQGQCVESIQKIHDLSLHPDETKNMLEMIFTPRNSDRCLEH
Kindly answer with a numeric value in µM, unit omitted.

Field: example entries. Status: answers known.
Q: So what's the measured IC50 for this one? O=S(=O)(NCCc1c(C(c2ccccc2O)c2[nH]c3ccccc3c2CCNS(=O)(=O)c2ccc(Cl)cc2)[nH]c2ccccc12)c1ccc(Cl)cc1
A: 4.2

Q: Can you check O=[N+]([O-])c1ccc(S(=O)(=O)NCCc2c(C(c3ccccc3O)c3[nH]c4ccccc4c3CCNS(=O)(=O)c3ccc([N+](=O)[O-])cc3)[nH]c3ccccc23)cc1 next?
A: 2.8

Q: What would you report for CCn1c2ccccc2c2ccc(C(c3[nH]c4ccccc4c3CCNS(=O)(=O)c3ccc(Cl)cc3)c3[nH]c4ccccc4c3CCNS(=O)(=O)c3ccc(Cl)cc3)cc21 ?
A: 3.9

Q: Lookup O=[N+]([O-])c1cccc(S(=O)(=O)NCCc2c(C(c3ccc(O)cc3)c3[nH]c4ccccc4c3CCNS(=O)(=O)c3cccc([N+](=O)[O-])c3)[nH]c3ccccc23)c1
A: 2.3

***
Q: So what's the measured IC50 for this one? O=S(=O)(NCCc1c(C(c2ccc(F)cc2)c2[nH]c3ccccc3c2CCNS(=O)(=O)c2ccc(Cl)cc2)[nH]c2ccccc12)c1ccc(Cl)cc1
A: 5.4

Q: Now give it for N#Cc1ccc(C(c2[nH]c3ccccc3c2CCNS(=O)(=O)c2ccc(F)cc2)c2[nH]c3ccccc3c2CCNS(=O)(=O)c2ccc(F)cc2)cc1 too.
A: 9.8

###

System: aromatase
Assay: Selectivity index, ratio of IC50 for GFP-expressing African green monkey Vero cells to IC50 for aromatase (unknown origin)
Format: toxicity
Conditions: read-out: Ratio IC50
Listing of recorded selectivity ratio by entry.

Sample answers from the record:
Q: // query selectivity ratio value for entry O=[N+]([O-])c1cccc(S(=O)(=O)NCCc2c(C(c3ccc(O)cc3)c3[nH]c4ccccc4c3CCNS(=O)(=O)c3cccc([N+](=O)[O-])c3)[nH]c3ccccc23)c1
A: > 27.4

Q: Request: O=C1Nc2ccccc2C1(c1[nH]c2ccccc2c1CCNS(=O)(=O)c1ccc(Cl)cc1)c1[nH]c2ccccc2c1CCNS(=O)(=O)c1ccc(Cl)cc1
A: > 7.54

More entries:
Q: # get_value(readout='selectivity ratio', item= O=S(=O)(NCCc1c(C(c2ccc(O)cc2)c2[nH]c3ccccc3c2CCNS(=O)(=O)c2ccc(Cl)cc2)[nH]c2ccccc12)c1ccc(Cl)cc1 )
A: 10.7

Q: Note, next up: CCn1c2ccccc2c2ccc(C(c3[nH]c4ccccc4c3CCNS(=O)(=O)c3ccc(Cl)cc3)c3[nH]c4ccccc4c3CCNS(=O)(=O)c3ccc(Cl)cc3)cc21
A: > 14.7

Q: Same read-out for O=[N+]([O-])c1cccc(S(=O)(=O)NCCc2c(C(c3ccccc3O)c3[nH]c4ccccc4c3CCNS(=O)(=O)c3cccc([N+](=O)[O-])c3)[nH]c3ccccc23)c1 ?
A: > 37

Q: Next up: COc1ccc(S(=O)(=O)NCCc2c(C(c3ccccc3O)c3[nH]c4ccccc4c3CCNS(=O)(=O)c3ccc(OC)cc3)[nH]c3ccccc23)cc1
A: > 81.7
